- measured_on: Glutamate NMDA receptor
- assay_name: Binding affinity against phencyclidine (PCP) site of N-methyl-D-aspartate glutamate receptor from rat brain, using [3H]- TCP as radioligand.
parameter_measured: pKi
One number for each entry, as −log10 of the molar value.

Examples from the recorded data:
Cn1nc[n+]2c1C1c3ccccc3C2CC1(c1ccoc1)c1ccoc1 (centres undefined) = 7.85
CCCCn1cc[n+]2c1C1c3ccccc3C2CC1(c1ccoc1)c1ccoc1 (centres undefined) = 7.44
c1ccc(CCCn2cc[n+]3c2C2c4ccccc4C3CC2(c2ccoc2)c2ccoc2)cc1 (centres undefined) = 7.17
c1ccc(C(c2ccccc2)n2cc[n+]3c2C2c4ccccc4C3CC2(c2ccoc2)c2ccoc2)cc1 (centres undefined) = 6.51
CCOC1(OCC)C2c3ccccc3C([n+]3cnn(C)c32)C1(C)C (centres undefined) = 7.52

Respectfully, I request pKi for each entry included below.
1. CCOC1(OCC)C2c3ccccc3C([n+]3ccn(C)c32)C1(C)C (centres undefined)
2. c1ccc2c(c1)C1CC(c3ccoc3)(c3ccoc3)C2c2n(Cc3ccc4ccccc4c3)cc[n+]21 (centres undefined)
3. c1ccc(-n2cc[n+]3c2C2c4ccccc4C3CC2(c2ccoc2)c2ccoc2)cc1 (centres undefined)

1. 8.09
2. 6.48
3. 7.28

###

- measured_on: Glutamate NMDA receptor
- assay_name: Binding affinity against phencyclidine (PCP) site of N-methyl-D-aspartate glutamate receptor from rat brain, using [3H]- TCP as radioligand.
parameter_measured: pKi
Give bare numbers, as −log10 of the molar value.

C1=C[N+]2=C(C1c1cccc3ccccc13)C1c3ccccc3C2CC1(c1ccoc1)c1ccoc1 (stereo unspecified) = 6.48
CCOC1(OCC)C2c3ccccc3C([n+]3ccsc32)C1(C)C (stereo unspecified) = 8.21
c1ccc(Cn2cc[n+]3c2C2c4ccccc4C3CC2(c2ccoc2)c2ccoc2)cc1 (stereo unspecified) = 8.11
CCOC1(OCC)C2c3ccccc3C([n+]3ccn(Cc4ccccc4)c32)C1(C)C (stereo unspecified) = 8.00
c1ccc2c(c1)C1CC(c3ccoc3)(c3ccoc3)C2c2scc[n+]21 (stereo unspecified) = 8.54

Response field pKi (Glutamate NMDA receptor) for item Cn1cc[n+]2c1C1c3ccccc3C2CC1(c1ccoc1)c1ccoc1 (stereo unspecified) : 8.54
